Kindly supply the reported GI50 values for the records listed here.
Tested on: IGROV1 ovarian
Assay: NCI tumour cell line growth inhibition, 48 h

Worked cases, answers included:
COc1ccc(-c2ccncc2)cc1C(N)=O    > 25000 nM
COc1ccc2c(=O)cc(-c3ccccc3)[nH]c2c1    578 nM
NS(=O)(=O)c1ccc(-n2nc3c(c2-c2ccc(Cl)cc2)Cc2ccccc2-3)cc1    2580 nM
CC(C)c1c(-c2ccccc2)nc2c(C#N)c[nH]n2c1=O    34300 nM
CCNc1cc(-c2cccc(OC(F)(F)F)c2)nc2ccc(N3CCCC3)cc12    1780 nM
COc1ccc(/C=C/C(=O)/C=C/c2cc3ccccc3[nH]c2=O)cc1    2210 nM

Now look at this one.
Prompt: # input molecule: CCOC(=O)C(Cc1c[nH]c2c(N(CCO)CCO)cccc12)(NC(C)=O)C(=O)OCC ; wanted: its GI50
Response: 643000 nM
